System: SB.msgc-1
Assay Remarks: area under the dose-response curve of % viability (trapezoidal, 11 doses) (% viability x log10 concentration); higher = less cytotoxic
Condition Summary: SB.msgc-1 (sporadic gastric cancer)
Structures can show the parent of a compound that is named as a salt.
area under the dose-response curve values for the molecules below.
Observation Type: area under the dose-response curve

- C[C@H](NC(=O)C(=O)Nc1ccccc1C(C)(C)C)C(=O)N[C@@H](CC(=O)O)C(=O)COc1c(F)c(F)cc(F)c1F [Emricasan] (top concentration 46.0829 µM): 574
- COc1ccc(C(CN(C)C)C2(O)CCCCC2)cc1 (stereo unspecified) [Venlafaxine hydrochloride] (top concentration 46.0829 µM): 516
- NCCCC(N)(C(=O)O)C(F)F (stereo unspecified) [Eflornithine Hydrochloride] (top concentration 46.0829 µM): 528
- COc1cc2c(cc1OC)CC(=O)N(CCCN(C)C[C@H]1Cc3cc(OC)c(OC)cc31)CC2.Cl [Ivabradine hydrochloride] (top concentration 46.0829 µM): 559
- C[C@](O)(CS(=O)(=O)c1ccc(F)cc1)C(=O)Nc1ccc(C#N)c(C(F)(F)F)c1 [(R)-Bicalutamide] (top concentration 46.0829 µM): 377
- O=C(CN1C(=O)C2(CCCC2)NC[C@H]1c1cc(F)cc(F)c1)Nc1ccc2c(c1)C[C@@]1(C2)C(=O)Nc2ncccc21 [MK-3207] (top concentration 46.0829 µM): 573
- CNC(=O)c1ccc2c(c1)NC(=O)/C2=C(\Nc1cccc(CN(C)C)c1)c1ccccc1 (top concentration 46.0829 µM): 518
- N[S+](=O)([O-])c1cc2c(cc1Cl)NC(C(Cl)Cl)N[S+]2(=O)[O-] (stereo unspecified) [Trichlormethiazide] (top concentration 46.0829 µM): 539
- Cc1[nH]c(/C=C2\C(=O)Nc3ccccc32)c(C)c1CCC(=O)O [Orantinib] (top concentration 46.0829 µM): 472
- COC1=CC=CC(=C1/C2=N/CC3=C(N=C(NC4=CC(=C(C=C4)C(O)=O)OC)N=C3)C5=CC=C(Cl)C=C25)F [Alisertib] (top concentration 46.0829 µM): 461
- CCC(=O)O[C@@]1([C@@H](C)C[C@H]2[C@@H]3CCC/4=C/C(=O)/C=C\[C@]4(C)[C@@]3(F)[C@@H](O)C[C@]12C)C(=O)CCl [Clobetasol propionate] (top concentration 46.0829 µM): 548

---

area under the dose-response curve values for the molecules below.
Tested on: SB.mhdgc-1
Assay Remarks: area under the dose-response curve of % viability (trapezoidal, 11 doses) (% viability x log10 concentration); higher = less cytotoxic
Condition Summary: SB.mhdgc-1 (hereditary c.1380delA CDH1 gastric cancer)
Observation Type: area under the dose-response curve

• Cc1cn2cc(C(=O)N(C)CCO)cc(N[C@@H]3CCOc4cccc(C)c43)c2n1 (top concentration 46.0829 µM) = 576
• Cc1ccccc1C(C(=O)NC1CCCCC1)N(C(=O)CNc1ccc(C#N)cc1)c1cccc(F)c1 (centres undefined) [IDH-C227] (top concentration 46.0829 µM) = 568
• Oc1ccc(C2CNCCc3c2cc(O)c(O)c3Cl)cc1 (centres undefined) [Fenoldopam] (top concentration 46.0829 µM) = 434
• O=C(Nc1nc2ccccc2n1CCN1CCOCC1)c1cccc([N+](=O)[O-])c1 (top concentration 46.0829 µM) = 441
